Each recorded value in this set is attributed to patent US20200246316A1.

Assay: in vivo
Conditions: female, Sprague-Dawley (CD IGS, Crl:CD(SD)), rat, po, 100 mg/kg
Structures can show the parent of a compound that is named as a salt.

{"columns": ["compound", "measure-unit", "half-life"],
 "data": [
  ["CC1(C)SC(Nc2ccccc2O)=N[C@@H]1C(=O)O [Compound 1, mono-hydrochloride]", "min", 240]
]}

* * *

Biological target: OAT1 (Homo sapiens, UniProt Q4U2R8)
Construct: expressed in transfected cells; host or cells: HEK293 cells
Sequence (Q4U2R8 whole entry): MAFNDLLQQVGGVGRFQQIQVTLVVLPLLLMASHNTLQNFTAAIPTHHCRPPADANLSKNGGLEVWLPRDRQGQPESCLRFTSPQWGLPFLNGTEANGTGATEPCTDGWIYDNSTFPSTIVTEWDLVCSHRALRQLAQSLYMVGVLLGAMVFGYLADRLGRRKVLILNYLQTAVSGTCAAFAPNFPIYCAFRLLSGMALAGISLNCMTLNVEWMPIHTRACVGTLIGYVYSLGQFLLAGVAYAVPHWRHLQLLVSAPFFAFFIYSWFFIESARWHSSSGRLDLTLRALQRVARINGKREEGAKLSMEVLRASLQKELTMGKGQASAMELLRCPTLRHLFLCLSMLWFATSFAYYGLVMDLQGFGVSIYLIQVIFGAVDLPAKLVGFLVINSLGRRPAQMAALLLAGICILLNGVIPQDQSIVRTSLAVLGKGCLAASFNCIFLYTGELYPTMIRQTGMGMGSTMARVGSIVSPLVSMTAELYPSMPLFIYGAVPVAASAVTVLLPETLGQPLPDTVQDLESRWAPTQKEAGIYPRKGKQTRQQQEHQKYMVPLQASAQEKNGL
Test: Inhibition of uptake (SLC) transporters
Type: in vitro ADME
Conditions: HEK293 cells, probe [3H]-p-aminohippurate (1 μM), 0.3-600 μM tested
Structures can show the parent of a compound that is named as a salt.

{"columns": ["compound", "target-entity", "IC50"],
 "data": [
  ["CC1(C)SC(Nc2ccccc2O)=N[C@@H]1C(=O)O [Compound 1, mono-hydrochloride]", "OAT1 (Homo sapiens, UniProt Q4U2R8)", "> 600 µM"]
]}
